# target_desc: Voltage-dependent calcium channel gamma-2 subunit (Mus musculus) + Glutamate receptor 2 (Rattus norvegicus) (UniProt O88602+P19491)
# Sequence (O88602 whole entry, looked up): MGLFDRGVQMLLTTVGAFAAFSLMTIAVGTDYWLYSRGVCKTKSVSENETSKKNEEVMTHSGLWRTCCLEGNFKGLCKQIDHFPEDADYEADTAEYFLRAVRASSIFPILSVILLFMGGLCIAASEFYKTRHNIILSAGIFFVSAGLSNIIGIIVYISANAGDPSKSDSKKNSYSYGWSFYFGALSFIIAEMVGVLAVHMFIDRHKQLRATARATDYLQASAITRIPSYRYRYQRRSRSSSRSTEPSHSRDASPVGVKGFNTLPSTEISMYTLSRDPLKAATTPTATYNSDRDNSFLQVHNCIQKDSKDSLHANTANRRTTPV
# Sequence (P19491 whole entry, looked up): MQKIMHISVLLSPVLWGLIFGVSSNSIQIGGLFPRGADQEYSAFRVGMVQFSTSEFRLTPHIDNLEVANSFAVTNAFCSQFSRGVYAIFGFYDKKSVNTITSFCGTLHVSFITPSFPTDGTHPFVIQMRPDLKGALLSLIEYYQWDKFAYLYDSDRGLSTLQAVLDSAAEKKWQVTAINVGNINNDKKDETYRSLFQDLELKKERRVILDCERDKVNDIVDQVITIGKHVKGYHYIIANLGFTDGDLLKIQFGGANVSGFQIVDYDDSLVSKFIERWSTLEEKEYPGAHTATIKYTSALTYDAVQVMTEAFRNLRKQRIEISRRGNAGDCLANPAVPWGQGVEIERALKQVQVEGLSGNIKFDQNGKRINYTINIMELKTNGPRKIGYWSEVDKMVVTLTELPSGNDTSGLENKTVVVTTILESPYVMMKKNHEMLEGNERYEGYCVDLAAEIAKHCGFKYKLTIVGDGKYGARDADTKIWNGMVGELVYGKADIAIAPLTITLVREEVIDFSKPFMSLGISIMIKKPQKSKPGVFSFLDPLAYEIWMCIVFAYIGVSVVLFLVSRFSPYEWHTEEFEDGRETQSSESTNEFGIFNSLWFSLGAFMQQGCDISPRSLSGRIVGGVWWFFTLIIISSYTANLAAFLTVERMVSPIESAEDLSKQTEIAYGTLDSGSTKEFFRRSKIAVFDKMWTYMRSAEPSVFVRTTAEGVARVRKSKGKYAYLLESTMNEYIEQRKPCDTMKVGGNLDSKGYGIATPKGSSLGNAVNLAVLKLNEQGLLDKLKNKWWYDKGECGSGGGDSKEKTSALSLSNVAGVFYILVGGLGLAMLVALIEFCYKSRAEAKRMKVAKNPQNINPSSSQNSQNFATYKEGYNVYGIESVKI
# procedure_summary: modulators of GluA2-stargazin AMPA receptor complexes, primary screen, cell-based, membrane potential dye (AID 1259245)
# settings: HEK293 GluA2+stargazin, membrane potential dye (FDSS), glutamate EC50, at 30 µM, hits were called plate by plate, in both directions; compound-alone response (agonism)
Out of some 40,000 compounds screened, about 1,400 (3.5%) were called active. This is one part of a sample in which actives are shown more often than they occur.
# compound max-min signal per record follows
Just the number, please, no unit after it.

1. COc1cccc(-c2noc(C3CCN(S(=O)(=O)c4ccc(C)cc4)CC3)n2)c1OC ... 0.0999
2. Cn1nc(NC(=O)c2ccc3c(c2)OCO3)c2c1NC(=O)CC2c1cccs1 (stereo unspecified) ... 0.101
3. COc1ccc(NC(=O)C(=O)Nc2cc([N+](=O)[O-])ccc2C)cc1OC ... 0.325
4. COc1cc(OC)cc(C(=O)Nc2nnc(-c3cc(OC)c(OC)c(OC)c3)o2)c1 ... 0.259
5. O=C(Nn1cnc2c(cnn2-c2cccc(Cl)c2)c1=O)c1ccc(-c2ccccc2)cc1 ... 0.0867

Lab note: next compound to report on.
Measured compound max-min signal, O=C(NCc1ccc2c(c1)OCO2)c1ccc(=O)[nH]n1 : 0.05

====

glutamate response, % of max values for the molecules below.
# target_desc: Voltage-dependent calcium channel gamma-2 subunit (Mus musculus) + Glutamate receptor 2 (Rattus norvegicus) (UniProt O88602+P19491)
# procedure_summary: modulators of GluA2-stargazin AMPA receptor complexes, primary screen, cell-based, membrane potential dye (AID 1259245)
# settings: HEK293 GluA2+stargazin, membrane potential dye (FDSS), glutamate EC50, at 30 µM, hits were called plate by plate, in both directions
Hit rate of the full screen: of about 40,000 compounds, about 1,400 (3.5%) were called active. The full list was thinned out, with actives kept by preference.
Value expressed in %; do not type the unit.

The examples below pair each entry with its known result.
1) CCn1nnc2c(N3CCN(CC(=O)Nc4c(C)cc(C)cc4C)CC3)ncnc21 ... 21.5
2) Cc1cc(S(=O)(=O)NCCn2nc(-c3ccc(F)cc3)ccc2=O)ccc1F ... 28.5
3) CC(C)C(=O)Nc1ccc(SCC(=O)c2ccccc2)nn1 ... 25.4
4) CN(C)C(CNC(=O)C(=O)Nc1ccc2c(c1)OCCO2)c1cccn1C (configuration not stated) ... 30.5

Form: molecule = CCSc1ccccc1C(=O)N1CCN(c2ccc(-c3ccccn3)nn2)CC1 ; glutamate response, % of max = 34.1

Noted for O=S(=O)(c1ccccc1)N1CCN(Cc2nnnn2-c2ccc(F)cc2)CC1 : its glutamate response, % of max reads 29.1

For COc1ccc(/C=C2\Oc3c(ccc4c3CN(c3ccc(F)cc3)CO4)C2=O)c(OC)c1OC the molecule record lists glutamate response, % of max as 23.7

glutamate response, % of max reading for CCOc1ccccc1NC(=O)Cn1nc(-c2cc(C)c(C)cc2C)ccc1=O : 64

Noted for COC(=O)c1ccc(NC(=O)CSc2ccc(NC(=O)c3ccco3)nn2)cc1 : its glutamate response, % of max reads 23.1

====

Measured glutamate slope, % of max of individual entries
# target_desc: Voltage-dependent calcium channel gamma-2 subunit (Mus musculus) + Glutamate receptor 2 (Rattus norvegicus) (UniProt O88602+P19491)
# procedure_summary: modulators of GluA2-stargazin AMPA receptor complexes, primary screen, cell-based, membrane potential dye (AID 1259245)
# settings: HEK293 GluA2+stargazin, membrane potential dye (FDSS), glutamate EC50, at 30 µM, hits were called plate by plate, in both directions; measured here: glutamate response slope, % max
In all, about 40,000 compounds went through this assay and about 1,400 (3.5%) were called active. This excerpt belongs to a sample that is enriched for actives.
Provide only the numeric value, understood in %.

Record excerpt, results attached:
1) Cn1cccc1C(O)CNC(=O)C1(c2ccccc2)CCOCC1 (stereo unspecified) ... 62.9
2) Cc1cc(N(C)C)nc(-n2cc([N+](=O)[O-])cn2)n1 ... 63.4
3) Cc1ccc(N2CCN(C(=O)COc3nccc(C)n3)CC2)nn1 ... 61.3
4) Cn1cnc2cc(OC(=O)c3ccc(=O)[nH]n3)ccc21 ... 52.5
5) O=S(=O)(c1ccc(F)cc1F)N1CCN(c2ccc(-c3cccs3)nn2)CC1 ... 30.1

CCn1ccnc1N1CCN(C(=O)c2ccccc2Cl)CC1 yielded glutamate slope, % of max of 67.4

Please fill in: glutamate slope, % of max reported for O=C(CCn1ccc(=O)[nH]c1=O)N1CCN(c2ccc(-c3ccccn3)nn2)CC1 = 21.1

Just so you know, measured glutamate slope, % of max for CCNC(=O)CSc1nc(-c2ccccc2)c(NC(=O)CC2CCCC2)s1 came out at 44.8

====

# target_desc: Voltage-dependent calcium channel gamma-2 subunit (Mus musculus) + Glutamate receptor 2 (Rattus norvegicus) (UniProt O88602+P19491)
# procedure_summary: modulators of GluA2-stargazin AMPA receptor complexes, primary screen, cell-based, membrane potential dye (AID 1259245)
# settings: HEK293 GluA2+stargazin, membrane potential dye (FDSS), glutamate EC50, at 30 µM, hits were called plate by plate, in both directions; measured here: glutamate response slope, % max
Among all 40,000 compounds or so, about 1,400 (3.5%) were called active. What follows is part of a selection rich in actives, with near analogues and random picks from the rest.
glutamate slope, % of max for assorted compounds
Reply with just the number (in %).

Example entries and their recorded answers appear below.
1) COc1ccc(NC(=O)CCc2sc(C)nc2-c2cccs2)cc1OC ... 60.9
2) CCCc1ccc(C(=O)NCC(C)(O)COC)cc1 (stereo not given) ... 59.3
3) Cc1ccc(NC(=O)CSC2=NC(C)(C)N=C2c2ccccc2)c(C)c1 ... 61.7
4) O=C(/C=C/c1cccs1)NCC1CCN(C(=O)COc2ccccc2)CC1 ... 61.3
5) COc1ccc(NC(C)=O)cc1NC(=O)c1ccc(=O)[nH]n1 ... 57.1
6) COc1ccc(NC(C)=O)cc1NC(=O)CCCn1nc(-c2ccccc2)ccc1=O ... 52.7

The compound listed as CSc1ccccc1NC(=O)c1nc(-c2cnccn2)no1 has a reported glutamate slope, % of max of 49.2

Summary for this compound, COCC(C)(O)CNC(=O)Cc1cccc(C)c1 (stereo not given) : glutamate slope, % of max is 14.9

The recorded glutamate slope, % of max for entry COc1ccc2nc(N(CCN3CCOCC3)C(=O)c3ccccc3S(C)(=O)=O)sc2c1 equals 42.4

The reported value for COc1cc(Cl)ccc1C(=O)NC1(c2nc(-c3ccsc3)no2)CCCCC1 in terms of glutamate slope, % of max is 63.1

====

# target_desc: Voltage-dependent calcium channel gamma-2 subunit (Mus musculus) + Glutamate receptor 2 (Rattus norvegicus) (UniProt O88602+P19491)
# procedure_summary: modulators of GluA2-stargazin AMPA receptor complexes, primary screen, cell-based, membrane potential dye (AID 1259245)
# settings: HEK293 GluA2+stargazin, membrane potential dye (FDSS), glutamate EC50, at 30 µM, hits were called plate by plate, in both directions; compound-alone response (agonism)
Screen size: about 40,000 compounds; about 1,400 (3.5%) were called active. The list comes from a sample in which actives are over-represented; it also holds close analogues and randomly drawn compounds.
property: compound max-min signal
I'd appreciate a reply containing only the number, no unit.

1. CCN1CC(c2nc3ccccc3n2Cc2ccccc2F)CC1=O (stereo not drawn) ... 0.0186
2. Cc1ccc2cc(CNc3ccccc3)c(=O)n(CC(=O)Nc3ccccc3C)c2c1 ... 0.0993
3. Cn1cnc2cc(OC(=O)c3ccc(=O)[nH]n3)ccc21 ... 0.276
4. O=C(Nc1cccs1)N1CCC(c2nnc(-c3ccc(F)cc3)o2)CC1 ... 0.0749
5. Cn1cccc1C(CNC(=O)C(=O)Nc1ccccc1F)N1CCOCC1 (stereo not drawn) ... 0.0712
6. O=C(c1ccc(Cl)c(N2C(=O)CCS2(=O)=O)c1)N1CCc2ccccc2C1 ... 0.0843
7. COc1ccc(-n2nnnc2SC(C)C(=O)Nc2ccccc2Cl)cc1 (stereo not drawn) ... 0.0851
8. O=C(Nc1ccc2c(c1)OCO2)c1ccc(S(=O)(=O)N2CCCCCC2)cc1 ... 0.123

Form field compound max-min signal, entry O=S(=O)(CCCOc1ccc(F)cc1)NCCCc1ccccc1 : 0.118

Summary for this molecule, CSc1ccccc1NC(=O)c1nc(-c2cnccn2)no1 : compound max-min signal is 0.143

compound max-min signal recorded for this molecule, Cc1cccc(C)c1NC(=O)Cn1c(=O)n(C(C)C)c(=O)c2nscc21 , is 0.121

Recorded result, COc1nn(C)cc1C(=O)NCCN1CCN(S(C)(=O)=O)CC1 , compound max-min signal: 0.0954

Entry CC1CCN(C(=O)C(=O)Nc2c3c(nn2-c2ccc(F)cc2)CSC3)CC1 — recorded compound max-min signal = 0.0271
